Reference for the values: PubChem BioAssay (NCI)

System: IGROV1 ovarian
Assay Protocol: NCI-60 one-dose screen, 48 h (100 = growth as untreated, 0 = no growth, -100 = all killed)
Measurement Setup: 10 µM unless noted
This is part of a sample that, as a whole, favours compounds with a hit. Of some 83,000 tested, about 20% had one in any assay.
Consider the following compounds and their measured growth readings.
Result Type: growth (%)

1. O=C(O)c1cccc(CN2CCN(c3cc4c(cc3F)c(=O)c(C(=O)O)cn4C3CC3)CC2)c1O = 101
2. Cc1nn(-c2ccccc2)c(N2CCOCC2)c1-c1nc2ccc([N+](=O)[O-])cc2[nH]1 = 111
3. O=C(N/N=C\c1cc(Cl)ccc1O)N/N=C/c1cc(Cl)ccc1O = 49.1
4. COc1ccc(/C=C/C(=C/c2c(O)[nH]c3cc(Br)ccc23)N=O)cc1 = 103
5. CCCCCCCCCN(CCCCCCCCC)C(C)C(=O)c1ccc2cc(Br)c3ccccc3c2c1 (stereo not drawn) = 75.7
6. Fc1cc2[nH]ncc2c2c3c(c(-c4cn[nH]c4C(F)(F)F)nc12)C1CCC3C1 (stereo not drawn) = -13
7. C[C@@H]1C[C@H]2C(=O)O[C@@H](C)[C@H](NC(=O)[C@H](Cc3cc(F)cc(F)c3)NC(=O)Nc3ccc(Cl)cc3F)C(=O)N3C[C@H](O)C[C@H]3C(=O)N3CCN(C)C[C@H]3C(=O)N[C@@H](C)C(=O)N2C1 = 51.3
8. Cc1cc(C)c(-c2cc(O)c(-c3c(C)cc(C)cc3C)cc2O)c(C)c1 = 70.3
